B1: tRNA (parent)
chain: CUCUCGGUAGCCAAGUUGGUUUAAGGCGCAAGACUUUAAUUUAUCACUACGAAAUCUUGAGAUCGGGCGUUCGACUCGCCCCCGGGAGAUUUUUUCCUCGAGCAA

Variants of: B1
test: nonsense suppression (GFP-seq) (ratio to wild type); higher = more function; SUP4oc tRNA, yeast GFP reporter sort-seq
Fewer inactive variants are shown than the library holds.
Record y whenever nonsense suppression is at 0.2 or higher; record n when lower.

Here are 10 variants together with their reported answers.
# residue_sequence, label_class
data = [
    ("CUCUCGGUAGCCAAGUUGGUUUAAGGCGUAAGACUUUAAUUUAUCACUACGAAAUCUUGAGAUCGGGCGUUCGACACGCCCCCUGGAGAUUUUUUCCUCGAGCAA [C29U U76A G84U]", "n"),
    ("CUCUCGGUAGCCAAGUUGGUUUAAGGCGUAAGACUUUAAUUUAUCACUACGAAAUCUUGAGAUCGGGCGUUCGACUCGCCCCCGAGAGAUUUUUUCCUCGAGCAA [C29U G85A]", "y"),
    ("UUCUCGGUAGCCAAGUUGGUUUAAGGCGCAAGACAUUAAUUUAUCACUACGAAAUCUUGAGAUCGGGCGUUCGACUAGCCCCCUGGAGAUUUUUUCCUCGAGCAA [C1U U35A C77A G84U]", "n"),
    ("CUGUCGGUAGCCAAGUUGGUUUAAGGCGCGAGACUUUAAUUUAUCACUACGAAAUCUAGAGAUCGGGCGUUCGACUCGCCCCCGGGAGAUUUUUUCCUCGAGCAA [C3G A30G U58A]", "n"),
    ("CUCUCGGUAGCCAAGUAGGUUUAAGGCGCAAGACUUUAAUUUAUCACUACGAAAUCUUGAGAUCGGGCGUUCGACUCACCCCCGGGAGAUUUUUUCCUCGAGCAA [U17A G78A]", "y"),
    ("CUCUCGGUAGCCAAGUUGGAUUAAGGCGCAAGACUUUAAUUUAUCACUACGAAAUCUUGAGACCGGGCGUUCGACUCGCCCCCGGGAGAUUUUUUCCUCGAGCAA [U20A U63C]", "n"),
    ("CUCUCGGUAGCCAAGUUGGUUUAAGGCGCAAGACUUUAAUUUAUCACUACGAAAUCUUGAGAUCUGGCGUUCGACUCGCCCCCGAGAGAUUUUUUCCUCGAGCAA [G65U G85A]", "n"),
    ("CUCUCGGUAGCCUAAUUGGUUUAAGGCGCAAGACUUUAAUUUAUCACUACGAAAUCUUGAGAUCGGGCGUUCUACUCGCCCCCGGGAGAUUUUUUCCUCGAGCAA [A13U G15A G73U]", "n"),
    ("CUCUCGGUAGCCAAGUUGGUUUAAGGCGCAAGACUUUAAUUUAUCACUACGAAACCUUGAAAUCGGGCGUUCGACUCGCCCCCGGGAGAUUUUUUCCUCGAGCAA [U55C G61A]", "n"),
    ("CCCUCGGUAGCGAAGUUGGUUUAAGGCGCAAGACUUUAAUUUAUCACUACGAAAUCUUGAGAUCGGGCGUUCGACUCGCCCCCGGGAGAUUUUUUCCUCGAGCAA [U2C C12G]", "n"),
]

Q: State whether the measured nonsense suppression reaches 0.2, counting equality as reaching it, for CUCUCGAUAGCCAAGUUGGUUUAAGGCGCAAGACUUUAAUUUAUCACUACGAAAACUUGAGAUCGGGCGUUCGACUCGCCCCCGGGAGAUUUUUUCCUCGAGCAA [G7A U55A]
Result: n

Q: Quick check: does CUCUCGGUAGCCAAGUUGGUUUAAGGCGCAAGACUUUAAUUUAUCACUACGAAAUCUUGAGAUCGGGCGUUCGUCUCACCCCCGGGAGAUUUUUUCCUCGAGCAA [A74U G78A] have nonsense suppression greater than or equal to 0.2?
Result: n

Q: Does the reported nonsense suppression for CUCUCGGUAGCCAAGUUGGUUUAAGGCGCAAGACUUUAAUUUAUCACUACGAAAUCUUGACAUCGGGCGUUCGACUCGCCCCCGGGAGAUUUUUUCCUCGAGCAA [G61C] fall at or above the 0.2 mark?
Result: y

Q: Record CUCUCGGUAGCCGAGUUGGUUUAAGGCGCAAGACUUUAAUUUAUCACUACGAAAUCUUGAGAUCGGCCGUUCGACUCGCCCCGGGGAGAUUUUUUCCUCGAGCAA [A13G G67C C83G] ; criterion: nonsense suppression no lower than 0.2. Met?
Result: n

Q: Answer whether nonsense suppression of CUCUCGGUAGCCAAGUUGGCUUAAGGCGCAAGACUUUAAUUUAUCACUACGAAUUCUUGAGAUCGGGCGUUCGACUCGCCCCCGGGAGAUUUUUUCCUCGAGCAA [U20C A54U] is greater than or equal to 0.2.
Result: y
